Test Name: modulation of C. elegans fzo-1 (AID 1259413);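 also: fzo-1 mutant C. elegans worms in liquid wells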
Condition Parameters: C. elegans fzo-1 modulator screen, mean read-out; stronger effect = higher value

Compound: NC12CC3CC(CC(C3)C1)C2
mean signal: 230
--
Compound: O=C(c1ccccc1)c1ccc2n1CCC2C(=O)O (configuration not stated)
mean signal: 231
--
Compound: c1ccc2c(CC3=NCCN3)cccc2c1
mean signal: 245
--
Compound: CC[C@H](C)C(=O)O[C@H]1C[C@H](O)C=C2C=C[C@H](C)[C@H](CC[C@@H](O)C[C@@H](O)CC(=O)O)[C@H]21
mean signal: 245
--
Compound: C[C@H](CS)C(=O)N1CCC[C@H]1C(=O)O
mean signal: 261
--
Compound: Cc1ccc(O)c([C@H](CCN(C(C)C)C(C)C)c2ccccc2)c1
mean signal: 219
--
Compound: CN(C)CCc1c[nH]c2ccc(C[C@H]3COC(=O)N3)cc12
mean signal: 245
--
Compound: c1ccc(-c2ccc(C(c3ccccc3)n3ccnc3)cc2)cc1 (configuration not stated)
mean signal: 204
--
Compound: OC(CCN1CCCCC1)(c1ccccc1)C1CCCCC1 (configuration not stated)
mean signal: 211
--
Compound: CCCCCCNC(=O)n1cc(F)c(=O)[nH]c1=O
mean signal: 292
--
Compound: O=C(O)c1cccnc1
mean signal: 255
--
Compound: Clc1ccc2c(c1)C(N1CCNCC1)=Nc1ccccc1O2
mean signal: 211

----------
Test Name: growth inhibition of DIPG glioma cells, dose response, cell-based, JHH-DIPG-1, MIPE4.0, CellTiter-Glo, qHTS (AID 1347062);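 as to AC50: cells exposed to compound for two days before readout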
Condition Parameters: JHH-DIPG-1 viability, CellTiter-Glo ATP luminescence
Inconclusive results are not listed. Active and inactive are the calls of the source. The limit is not given here; nearly all actives have AC50 up to about 27 µM.
Classes used: true (active), false (inactive)

Chemical Structure: c1ccc([C@H]2CN3CCSC3=N2)cc1
Class: false

Chemical Structure: CC(=O)OCC(=O)[C@@]12OC(C)(C)O[C@@H]1C[C@H]1[C@@H]3C[C@H](F)C4=CC(=O)C=C[C@]4(C)[C@@]3(F)[C@@H](O)C[C@@]12C
Class: false

Chemical Structure: OCCN(CCO)c1nc(N2CCCCC2)c2nc(N(CCO)CCO)nc(N3CCCCC3)c2n1
Class: false

Chemical Structure: CCc1cc(C(N)=S)ccn1
Class: false

Chemical Structure: CCOC(=O)[C@H](CCc1ccccc1)N[C@H]1CCc2ccccc2N(CC(=O)O)C1=O
Class: true

Chemical Structure: S=c1nc[nH]c2nc[nH]c12
Class: true

----------
Tested on: R275C/beta2Delta
Test Name: modulators of BK channel variants, profiling panel, selectivity assay, cell-based, U2OS BacMam, thallium flux, beta subunits (AID 1259406);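 also: initial slope of Thallos dye fluorescence rise after thallium is added; log ratio against the mean of 0.3% DMSO vehicle wells on the same plate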
Condition Parameters: at 30 µM
Note to self: log fold change Tl+ flux under 0.005 means yes (1), ties and anything higher get no (0).

Molecule: O=C1CCC(N2C(=O)c3ccccc3C2=O)C(=O)N1 (stereo not given)
Class: no (0)

Molecule: C[C@H]1C[C@@H]2[C@H]([C@@H](O)C[C@@]3(C)[C@H]2CC[C@]3(O)C(=O)CO)[C@@]2(C)C=CC(=O)C=C12
Class: no (0)

Molecule: CSc1ccc2c(c1)N(CCC1CCCCN1C)c1ccccc1S2 (stereo not given)
Class: yes (1)

Molecule: CC(=O)OCC(=O)[C@@]1(O)CC[C@H]2[C@@H]3CCC4=CC(=O)CC[C@]4(C)[C@H]3C(=O)C[C@@]21C
Class: yes (1)

----------
Test Name: stimulators of nuclear beta-catenin in C2C12, primary screen, imaging, WNT3A-conditioned medium, mouse C2C12, NPC library (AID 1117326); also: reference of the scale not given here
Condition Parameters: at 10 µM, stronger effect = higher value

Compound: CC(C)c1cc2c(cc1S(=O)(=O)O)[C@@]1(C)CCC[C@@](C)(C(=O)O)[C@@H]1CC2
nuclear beta-catenin stimulation / %: -1
//
Compound: CCCCCCCCCCCCCCCCCCCCCC(=O)Nc1ccn([C@@H]2O[C@H](CO)[C@@H](O)[C@H]2O)c(=O)n1
nuclear beta-catenin stimulation / %: 4.1
//
Compound: O=C(C1CCCCC1)N1CC(=O)N2CCc3ccccc3C2C1 (centres undefined)
nuclear beta-catenin stimulation / %: -0.4
//
Compound: CC(=O)OC[C@H]1O[C@@H](OC(C)=O)[C@H](OC(C)=O)[C@@H]1OC(C)=O
nuclear beta-catenin stimulation / %: -0.3
//
Compound: O=C1CC(c2ccc(Cl)cc2)CC(=O)N1
nuclear beta-catenin stimulation / %: -1.1
//
Compound: CCCC(CCC)C(N)=O
nuclear beta-catenin stimulation / %: -0.9
//
Compound: CC(C(O)c1ccccc1)N(C)CCOC(c1ccccc1)c1ccccc1 (centres undefined)
nuclear beta-catenin stimulation / %: 4.3
//
Compound: CCCCCCCCOc1ccc(C(=O)c2ccccc2)c(O)c1
nuclear beta-catenin stimulation / %: 1
//
Compound: O=C(NCCc1c[nH]c2ccccc12)c1cccnc1
nuclear beta-catenin stimulation / %: 1
//
Compound: NC(=S)N/N=C/c1cccnc1
nuclear beta-catenin stimulation / %: 0.4
//
Compound: CC(C)Cc1ccc(C(C)C(=O)O)cc1 (centres undefined)
nuclear beta-catenin stimulation / %: 0.3
//
Compound: Oc1ccccc1C=NCc1ccccc1
nuclear beta-catenin stimulation / %: -0.8
//
Compound: CC1=NS(=O)(=O)c2cc(Cl)ccc2N1
nuclear beta-catenin stimulation / %: 0.5
//
Compound: CCCCCCCCCCCCCCCC[n+]1ccccc1
nuclear beta-catenin stimulation / %: -2.9
//
Compound: COc1ccc(OC)c(C(O)CNC(=O)CN)c1 (centres undefined)
nuclear beta-catenin stimulation / %: 3.8
//
Compound: CCCCC(=O)O[C@H]1CC[C@H]2[C@@H]3CCc4cc(O)ccc4[C@@H]3CC[C@]12C
nuclear beta-catenin stimulation / %: -0.4
//
Compound: OCC(O)CS (centres undefined)
nuclear beta-catenin stimulation / %: -0.5
//
Compound: CC(=O)N1CCN(c2ccc(O)cc2)CC1
nuclear beta-catenin stimulation / %: 1.7
//
Compound: c1ccc(OCc2ccc(CCCN3CCOCC3)cc2)cc1
nuclear beta-catenin stimulation / %: -1
//
Compound: Cn1c(=O)c2[nH]cnc2n(C)c1=O
nuclear beta-catenin stimulation / %: 1.1
//
Compound: NC[C@@H]1O[C@H](O[C@H]2[C@H](O)[C@H](O[C@H]3[C@@H](O)[C@H](N)C[C@H](N)[C@H]3O[C@H]3O[C@H](CN)[C@H](O)[C@H](O)[C@H]3N)O[C@@H]2CO)[C@@H](N)[C@@H](O)[C@@H]1O
nuclear beta-catenin stimulation / %: -0.3
//
Compound: Cc1cccc(N(C)C(=S)Oc2ccc3c(c2)CCC3)c1
nuclear beta-catenin stimulation / %: 0
//
Compound: NCCC(=O)[N-][C@@H](Cc1cnc[nH]1)C(=O)O.[Zn]
nuclear beta-catenin stimulation / %: -0.4
//
Compound: Cc1c(F)cc2c(=O)c(C(=O)O)cn3c2c1CCC3C (centres undefined)
nuclear beta-catenin stimulation / %: 1.9

----------
Measured Target: Cellular tumor antigen p53 (Homo sapiens)
Test Name: kinase inhibitors altering GFP-p53 stability in HPV16-positive cells, imaging, known kinase inhibitor set, EGFP/DsRed ratio (AID 1053116);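 also: cells exposed to compounds for 24 h at 37 °C before reading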
Condition Parameters: stronger effect = higher value; measured here: GFP-p53 positive objects count
Reported values of EGFP object count for individual entries
Measurement Kind: EGFP object count

Compound: COc1ccc(-c2nn3ncccc3c2-c2ccnc(Nc3ccc4c(c3)OCCO4)n2)cc1
Measured Target: Cellular tumor antigen p53 (Homo sapiens)
Number: 1.5

Compound: CN1C(=O)C(c2c[nH]c3ccccc23)=C(c2c[nH]c3ccccc23)C1=O
Measured Target: Cellular tumor antigen p53 (Homo sapiens)
Number: 3

Compound: CC1=C(C(=O)Nc2ccc3n[nH]c(C)c3c2)C(c2ccc(C(F)(F)F)cc2)CC(=O)N1 (stereo not given)
Measured Target: Cellular tumor antigen p53 (Homo sapiens)
Number: 2.5

Compound: FC(F)(F)CNc1nccc(-c2cnn3ncccc23)n1
Measured Target: Cellular tumor antigen p53 (Homo sapiens)
Number: 2

Compound: O=C(O[C@H]1CN[C@H](C#Cc2cc3ncnc(Nc4ccc5c(ccn5Cc5cc(F)ccc5F)c4)c3s2)C1)N1CCOCC1
Measured Target: Cellular tumor antigen p53 (Homo sapiens)
Number: 3

----------
System: Hepatitis C virus NS3 helicase
Test Name: HCV NS3 helicase inhibitors, primary screen, biochemical, fluorescence polarization, NIH Clinical Collection (AID 743270)
Condition Parameters: NS3 helicase binding to Cy5-dT15 DNA, stronger effect = higher value, concentration not given here
Listed next: entries and their corresponding inhibition.

Compound: C[C@]12C=CC(=O)C=C1CC[C@@H]1[C@@H]2C(=O)C[C@@]2(C)[C@H]1CC[C@]2(O)C(=O)CO
Measured Target: Hepatitis C virus NS3 helicase
Unit Tag: %
inhibition: -0.45
--
Compound: CCCCNC(=O)NS(=O)(=O)c1ccc(C)cc1
Measured Target: Hepatitis C virus NS3 helicase
Unit Tag: %
inhibition: -5.91
--
Compound: CC1COc2c(N3CCN(C)CC3)c(F)cc3c(=O)c(C(=O)O)cn1c23 (stereo unspecified)
Measured Target: Hepatitis C virus NS3 helicase
Unit Tag: %
inhibition: -2.27
--
Compound: Cc1cccc(Nc2ccncc2S(=O)(=O)NC(=O)NC(C)C)c1
Measured Target: Hepatitis C virus NS3 helicase
Unit Tag: %
inhibition: -1.19
--
Compound: NNC(=O)c1ccncc1
Measured Target: Hepatitis C virus NS3 helicase
Unit Tag: %
inhibition: -2.27
--
Compound: COc1ccc2c(c1)c(CC(=O)O)c(C)n2C(=O)c1ccc(Cl)cc1
Measured Target: Hepatitis C virus NS3 helicase
Unit Tag: %
inhibition: -3.56
--
Compound: c1ccc2[nH]c(-c3cscn3)nc2c1
Measured Target: Hepatitis C virus NS3 helicase
Unit Tag: %
inhibition: 0.45
--
Compound: CC(=O)OCC[N+](C)(C)C
Measured Target: Hepatitis C virus NS3 helicase
Unit Tag: %
inhibition: -0.45
--
Compound: OCCN1CCN(CCCN2c3ccccc3Sc3ccc(C(F)(F)F)cc32)CC1
Measured Target: Hepatitis C virus NS3 helicase
Unit Tag: %
inhibition: -6.33
--
Compound: COc1ccc([C@@H]2Sc3ccccc3N(CCN(C)C)C(=O)[C@@H]2OC(C)=O)cc1
Measured Target: Hepatitis C virus NS3 helicase
Unit Tag: %
inhibition: -3.18
--
Compound: CCCCC1=NC2(CCCC2)C(=O)N1Cc1ccc(-c2ccccc2-c2nn[nH]n2)cc1
Measured Target: Hepatitis C virus NS3 helicase
Unit Tag: %
inhibition: -3.56

Reference source: PubChem BioAssay
